Biological target: PRMT5 (Homo sapiens, UniProt O14744)
Construct: purchased Viva (custom protein)
Sequence (O14744 whole entry): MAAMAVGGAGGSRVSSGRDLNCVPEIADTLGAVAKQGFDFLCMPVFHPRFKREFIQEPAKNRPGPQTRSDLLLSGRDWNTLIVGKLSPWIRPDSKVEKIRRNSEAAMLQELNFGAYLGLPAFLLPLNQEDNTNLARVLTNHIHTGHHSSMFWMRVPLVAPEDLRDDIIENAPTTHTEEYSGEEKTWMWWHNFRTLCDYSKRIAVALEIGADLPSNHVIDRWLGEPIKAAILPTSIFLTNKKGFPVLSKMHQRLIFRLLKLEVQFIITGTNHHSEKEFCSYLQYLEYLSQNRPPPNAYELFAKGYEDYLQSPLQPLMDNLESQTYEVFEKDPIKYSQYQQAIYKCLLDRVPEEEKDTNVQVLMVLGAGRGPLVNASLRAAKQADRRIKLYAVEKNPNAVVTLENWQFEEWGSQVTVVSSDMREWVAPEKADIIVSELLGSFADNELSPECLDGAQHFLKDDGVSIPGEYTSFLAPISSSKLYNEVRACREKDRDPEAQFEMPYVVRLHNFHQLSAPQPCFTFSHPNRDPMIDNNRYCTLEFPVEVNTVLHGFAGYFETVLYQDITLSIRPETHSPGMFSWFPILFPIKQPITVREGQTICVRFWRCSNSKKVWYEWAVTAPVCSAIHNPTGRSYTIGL
Sequence (Q9BQA1 whole entry partner): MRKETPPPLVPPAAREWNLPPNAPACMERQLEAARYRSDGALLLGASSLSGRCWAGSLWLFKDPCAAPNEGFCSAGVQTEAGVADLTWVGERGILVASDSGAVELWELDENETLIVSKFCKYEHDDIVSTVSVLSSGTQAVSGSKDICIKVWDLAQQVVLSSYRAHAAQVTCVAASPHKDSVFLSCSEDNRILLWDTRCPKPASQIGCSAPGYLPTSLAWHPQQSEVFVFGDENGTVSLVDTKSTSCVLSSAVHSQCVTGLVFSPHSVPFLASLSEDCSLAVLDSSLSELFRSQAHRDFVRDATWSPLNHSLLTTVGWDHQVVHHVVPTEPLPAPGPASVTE
Assay: PRMT5 biochemical IC50 assay with no cofactor
Conditions: PRMT5, no cofactor; read-out: No Cofactor/ rel IC50
measurement_label: IC50

Use the examples below as a reference point.
- compound: "CCc1cc(NC(=O)C(=O)N2C[C@@H](C)CC[C@@H]2c2ccc(OCCN(C)C)cc2)cnc1N"
  IC50: "< 50 nM"
- compound: "Cc1cc(NC(=O)C(=O)N2C[C@@H](C)CC[C@@H]2c2ccc(N3CCN(C)CC3)cc2)cnc1N (single isomer, unassigned)"
  IC50: "< 50 nM"
- compound: "CCc1cc(NC(=O)C(=O)N2C[C@@H](C)CC[C@@H]2c2ccc3sc([C@H]4C[C@@H]5CN(C)C[C@@H]5C4)nc3c2)cnc1N"
  IC50: "< 50 nM"
- compound: "CCc1cc(NC(=O)C(=O)N2C[C@@H](C)CC[C@@H]2c2ccc3c(c2)C(=O)N(C2CCN(C)CC2)C3)cnc1N (racemic)"
  IC50: "< 50 nM"
- compound: "C[C@@H]1CC[C@@H](c2cccnc2)N(C(=O)C(=O)Nc2cncc(C(N)=O)c2)C1 (single isomer, unassigned) [Compound 106]"
  IC50: "50 to 500 nM"

Could you tell me which IC50 is on file for COCCc1nc2cc([C@@H]3CC[C@@H](C)CN3C(=O)C(=O)Nc3cnc(N)c(C4CC4)c3)ccc2s1 (single isomer, unassigned) ?
50 to 500 nM

Could you tell me which IC50 is on file for NC(=O)c1cncc(NC(=O)C(=O)N2CCCCC2C2CCCCC2)c1 (stereo not shown) [Compound 101] ?
50 to 500 nM

Could you tell me which IC50 is on file for Cc1cc(NC(=O)C(=O)N2CCCC[C@H]2C2CCCCC2)cnc1N (single isomer, unassigned) ?
> 500 nM

Could you tell me which IC50 is on file for `CCc1cc(NC(=O)C(=O)N2C[C@@H](C)CC[C@@H]2c2ccc3ccc(C4CCN(C)CC4)nc3c2)cnc1N` ?
< 50 nM

Could you tell me which IC50 is on file for C[C@H]1CC[C@H](c2ccc3sc(C4CCN(C)CC4)nc3c2)N(C(=O)C(=O)Nc2cnc(OC(F)(F)F)c(C(N)=O)c2)C1 (single isomer, unassigned) ?
< 50 nM

Could you tell me which IC50 is on file for Cc1cc(NC(=O)C(=O)N2CCCCC2c2cccc3c2ncn3C)cnc1N (stereo not shown) ?
> 500 nM

Could you tell me which IC50 is on file for Cn1nccc1C1CCCCN1C(=O)C(=O)Nc1cncc(C(N)=O)c1 (stereo not shown) [Compound 26] ?
> 500 nM

Could you tell me which IC50 is on file for C[C@H]1CCC(c2ccc3sc(C4CCOCC4)nc3c2)N(C(=O)C(=O)Nc2cnc(N)c(C3CC3)c2)C1 (single isomer, unassigned) ?
< 50 nM
